Reference for the values: patent US7262215B2

Tested on: PKC (rat brain)
Test: Protein Kinase C inhibition assay (PKC), radioactivity-based
Type: biochemical
Conditions: 10 μM compound; NA = not active
property-name: % Inhibition PKC (%)

[A] O=C1NC(=O)c2c1c1c3ccccc3[nH]c1c1c2c2ccccc2n1C1C=C[C@H](Cl)CC1 (mixture of isomers) [NAD085]
[B] CC(=O)O[C@H]1CC(n2c3ccccc3c3c4c(c5c6ccccc6[nH]c5c32)C(=O)NC4=O)[C@H](O)[C@@H]1O (mixture of isomers) [NAD160]
Exercise: Lower value of % Inhibition PKC belongs to which: A or B ? Field: selected label. Fill in the label of the entry you choose.
Solution: A
